Origin of the recorded values: the RNAGym collection of RNA variant scans (doi:10.1021/acssynbio.7b00057)

B1: Pistol ribozyme (parent)
chain: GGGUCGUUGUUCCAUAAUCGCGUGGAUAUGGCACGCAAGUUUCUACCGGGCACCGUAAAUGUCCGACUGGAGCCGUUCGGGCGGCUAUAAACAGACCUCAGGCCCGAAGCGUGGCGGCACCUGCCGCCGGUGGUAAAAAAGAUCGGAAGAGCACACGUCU

- Variants of: B1
- measurementNotes: aptazyme ON/OFF ratio, guanine; higher = stronger switching; co-transcriptional cleavage with and without guanine
Documented aptazyme ON/OFF ratio across a set of variants
Answer with the value's number alone.

Prompt: Give a short answer stating reported aptazyme ON/OFF ratio for U8G G9C U10A U11A C12A C13U .
Response: 1.18

Prompt: Give a short answer stating reported aptazyme ON/OFF ratio for U7C U8C G9C U10G C12U C13A .
Response: 1.08

Prompt: Give a short answer stating reported aptazyme ON/OFF ratio for U7A U8C U10C U11C C12A C13A .
Response: 1.09

Prompt: Give a short answer stating reported aptazyme ON/OFF ratio for U8C G9A U11G C12U C13G .
Response: 1.29
